Values from patent US20170240628A1

# target.system: T1, recombinant murine midkine (muMK) (murine, UniProt P12025 23-140)
# T1 construct: also called murine MK; Murine MK
# T1 sequence (looked up): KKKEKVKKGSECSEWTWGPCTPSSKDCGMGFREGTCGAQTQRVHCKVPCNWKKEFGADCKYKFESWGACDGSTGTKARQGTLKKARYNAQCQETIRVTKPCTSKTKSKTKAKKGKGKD
# method: ELISA by the methods of Example 2 (printed as KD)
Quick reference: Kd of the listed items.
All answers are understood in pM, so give the number only.

binder	unit.of.measure	Kd
mouse-human chimeric IP14 antibody (antibody, V domains shown, also called chimeric antibody; Hv0 Lv0) VH: QVQLQQPGAELVRPGHSVKLSCKASGQSFSSYWMNWVRQRPGQGLEWIGMIHPSDSETILNQKFKDKATLTVDISSNTAYMQLSSPTSEDSAVYFCSSWSAKRGDFWGQGTTLTVSS VL: DIVLTQSPATLSVTPGDSVNLSCRASESISNNLHWYQQKSHESPRLLIKYASQSISGIPSRFSGSGSGTDFNLSVNSVETEDFGMYFCQQSNSWPLTFGAGTKLELKR	pM	130

Q. Name the recorded Kd of the item IP14-H6L8 (antibody, V domains shown, also called hIP14-H6L8; Hv6 Lv8) VH: QVQLVQSGGGLVKPGHSLRLSCAASGQSFSSYWMNWVRQAPGKGLEWIGMIHPSDSETILNQKFKDKATLSVDIAKNSAYLQMNSLRAEDTAVYYCSSWSAKRGDFWGQGTLVTVSS VL: DIVLTQSPATLSLSPGERATLSCRASESISNNLHWYQQKPHQAPRLLIYYASQSISGVPARFSGSGSGTDFTLTISSVEPEDFAVYYCQQSNSWPLTFGQGTKVEIKR in your answer.
A. 91
